What follows is a collection of Ki values obtained with D3 receptor (Homo sapiens (Human), UniProt P35462).
Sequence (P35462 whole entry): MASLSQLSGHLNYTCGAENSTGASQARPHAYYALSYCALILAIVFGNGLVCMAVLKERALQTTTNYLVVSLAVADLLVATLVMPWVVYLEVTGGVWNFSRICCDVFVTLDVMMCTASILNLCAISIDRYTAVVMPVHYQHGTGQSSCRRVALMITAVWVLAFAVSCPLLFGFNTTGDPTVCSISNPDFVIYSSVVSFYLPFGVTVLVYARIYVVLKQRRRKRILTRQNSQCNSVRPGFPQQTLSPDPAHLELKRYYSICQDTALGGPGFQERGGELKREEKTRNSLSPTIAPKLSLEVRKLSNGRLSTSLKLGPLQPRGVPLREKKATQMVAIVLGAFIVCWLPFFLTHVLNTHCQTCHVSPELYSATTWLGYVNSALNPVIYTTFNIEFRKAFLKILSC
The reply should be a number in nM, with the unit left off.

Below, each entry is followed by its recorded Ki result.
{"compound": "O=S(=O)(N[C@H]1CC[C@H](CCN2CCN(c3cccc4c3OCO4)CC2)CC1)c1ccc(F)cc1", "readoutLabel": "Ki", "endpointResult": 2.2}
{"compound": "COCCC(=O)N[C@H]1CC[C@H](CCN2CCN(c3cccc4c3OCO4)CC2)CC1", "readoutLabel": "Ki", "endpointResult": 1.88}
{"compound": "CN1CCN(CC(=O)N[C@H]2CC[C@H](CCN3CCN(c4cccc5c4OCO5)CC3)CC2)CC1", "readoutLabel": "Ki", "endpointResult": 4.63}
{"compound": "CCC(O)C(=O)N[C@H]1CC[C@H](CCN2CCN(c3cccc4c3OCO4)CC2)CC1 (some centres unmarked)", "readoutLabel": "Ki", "endpointResult": 12.5}
{"compound": "CO[C@@H]1CC[C@@H](CC(=O)N[C@H]2CC[C@H](CCN3CCN(c4cccc5c4OCO5)CC3)CC2)C1", "readoutLabel": "Ki", "endpointResult": 2.5}

Query: Ki; subject: O=C(N[C@H]1CC[C@H](CCN2CCN(c3cccc4c3OCO4)CC2)CC1)C1(O)CCCC1 11

// query: CN(C)S(=O)(=O)N[C@H]1CC[C@H](CCN2CCN(c3cccc4c3OCO4)CC2)CC1 3.36

// query: O=C(N[C@H]1CC[C@H](CCN2CCN(c3cccc4c3OCO4)CC2)CC1)N1CCc2ccccc21 2.01

====

Item-by-item account of Ki
target: D2 receptor (Homo sapiens (Human), UniProt P14416); test: Radioligand binding ([3H]-spiperone) to cloned D2 receptor expressed in HEK-293 EBNA cells; conditions: HEK293 EBNA membranes, 0.7 nM [3H]-spiperone
Sequence (P14416 whole entry): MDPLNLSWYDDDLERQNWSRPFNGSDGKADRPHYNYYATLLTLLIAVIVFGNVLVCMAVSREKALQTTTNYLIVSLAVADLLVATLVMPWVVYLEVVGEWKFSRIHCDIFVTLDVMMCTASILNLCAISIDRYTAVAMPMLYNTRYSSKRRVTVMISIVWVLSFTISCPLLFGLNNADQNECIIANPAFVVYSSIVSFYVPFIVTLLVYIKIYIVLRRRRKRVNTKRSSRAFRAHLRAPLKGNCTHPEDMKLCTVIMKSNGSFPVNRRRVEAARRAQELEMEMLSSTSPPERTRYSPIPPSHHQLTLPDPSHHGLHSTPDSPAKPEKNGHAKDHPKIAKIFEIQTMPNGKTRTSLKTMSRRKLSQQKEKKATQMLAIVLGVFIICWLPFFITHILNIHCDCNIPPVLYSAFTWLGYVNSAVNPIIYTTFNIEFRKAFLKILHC
The reply should be a number in nM, with the unit left off.

{"molecule": "C[C@@H](O)C(=O)N[C@H]1CC[C@H](CCN2CCN(c3cccc4c3OCO4)CC2)CC1 [Example 42]", "Ki / nM": 89.8}
{"molecule": "O=C(CC1CCCO1)N[C@H]1CC[C@H](CCN2CCN(c3cccc4c3OCO4)CC2)CC1 (stereo partly shown) [Example 6]", "Ki / nM": 189}
{"molecule": "COCCC(=O)N[C@H]1CC[C@H](CCN2CCN(c3cccc4c3OCO4)CC2)CC1 [Example 2]", "Ki / nM": 173}

Query: Ki; subject: O=C(N[C@H]1CC[C@H](CCN2CCN(c3cccc4c3OCO4)CC2)CC1)N1CCc2ccccc21 [Example 71] 241

====

What follows is a collection of Ki values obtained with D3 receptor (Homo sapiens (Human), UniProt P35462).
The reply should be a number in nM, with the unit left off.

Below, each entry is followed by its recorded Ki result.
{"molecule": "O=C(N[C@H]1CC[C@H](CCN2CCN(c3cccc4c3OCO4)CC2)CC1)c1ccc2c(c1)OCCO2", "readoutLabel": "Ki", "endpointResult": 4.59}
{"molecule": "CO[C@@H](C(=O)N[C@H]1CC[C@H](CCN2CCN(c3cccc4c3OCO4)CC2)CC1)C(C)C", "readoutLabel": "Ki", "endpointResult": 14.7}
{"molecule": "O=C(CC1CCOCC1)N[C@H]1CC[C@H](CCN2CCN(c3cccc4c3OCO4)CC2)CC1", "readoutLabel": "Ki", "endpointResult": 2.09}
{"molecule": "O=C(N[C@H]1CC[C@H](CCN2CCN(c3cccc4c3OCO4)CC2)CC1)C1COc2ccccc2C1 (some centres unmarked)", "readoutLabel": "Ki", "endpointResult": 0.87}
{"molecule": "O=C(N[C@H]1CC[C@H](CCN2CCN(c3cccc4c3OCO4)CC2)CC1)C1CCC1", "readoutLabel": "Ki", "endpointResult": 1.97}

Query: Ki; subject: Cn1cnc(S(=O)(=O)N[C@H]2CC[C@H](CCN3CCN(c4cccc5c4OCO5)CC3)CC2)c1 2.25

// query: O=S(=O)(CC(F)(F)F)N[C@H]1CC[C@H](CCN2CCN(c3cccc4c3OCO4)CC2)CC1 1.88

// query: [2H]C1([2H])Oc2cccc(N3CCN(CC[C@H]4CC[C@H](NC(=O)[C@@H](C)OC)CC4)CC3)c2O1 5.73

// query: O=C(N[C@H]1CC[C@H](CCN2CCN(c3cccc4c3OCO4)CC2)CC1)C1(O)CCCCC1 15.7

// query: O=C(N[C@H]1CC[C@H](CCN2CCN(c3cccc4c3OCO4)CC2)CC1)c1cccnc1 1.79

// query: COC(C)CC(=O)N[C@H]1CC[C@H](CCN2CCN(c3cccc4c3OCO4)CC2)CC1 (some centres unmarked) 2.76

====

target: 5-HT2A receptor (Homo sapiens (Human), UniProt P28223); experiment: Radioligand binding ([3H]-ketanserin) to cloned 5-HT2A receptor expressed in HEK-293 EBNA cells; conditions: human 5-HT2A receptor, HEK293 EBNA membranes, 1.1 nM [3H]-ketanserin
Sequence (P28223 whole entry): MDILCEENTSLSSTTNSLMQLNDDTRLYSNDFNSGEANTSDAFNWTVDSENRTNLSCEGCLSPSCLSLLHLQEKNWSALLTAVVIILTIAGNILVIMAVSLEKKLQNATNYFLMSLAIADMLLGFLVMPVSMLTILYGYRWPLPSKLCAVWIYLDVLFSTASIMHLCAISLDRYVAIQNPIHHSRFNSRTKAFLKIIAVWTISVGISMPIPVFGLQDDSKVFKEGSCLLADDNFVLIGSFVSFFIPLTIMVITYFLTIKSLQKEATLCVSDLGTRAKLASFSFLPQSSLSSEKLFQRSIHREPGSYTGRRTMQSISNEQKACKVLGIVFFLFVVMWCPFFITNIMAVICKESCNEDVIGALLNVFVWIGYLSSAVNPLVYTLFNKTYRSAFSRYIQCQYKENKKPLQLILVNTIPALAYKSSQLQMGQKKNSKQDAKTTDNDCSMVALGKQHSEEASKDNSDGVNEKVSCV
pKi: −log10 of the molar value.
Lab note: anything with pKi at or over 8 counts as Condition met; the rest go in Condition not met.

Reference set, count: 2
{"molecule": "O=C(C[C@H]1CCCOC1)N[C@H]1CC[C@H](CCN2CCN(c3cccc4c3OCO4)CC2)CC1 (single isomer, unassigned)", "targetDesc": "5-HT2A receptor (Homo sapiens (Human), UniProt P28223)", "class": "Condition not met"}
{"molecule": "O=C(N[C@H]1CC[C@H](CCN2CCN(c3cccc4c3OCO4)CC2)CC1)C1CCS(=O)(=O)C1 (stereo partly drawn)", "targetDesc": "5-HT2A receptor (Homo sapiens (Human), UniProt P28223)", "class": "Condition met"}

Here is the next item to consider.
Is reported pKi greater than or equal to 8 here: O=C(C[C@@H]1CCCOC1)N[C@H]1CC[C@H](CCN2CCN(c3cccc4c3OCO4)CC2)CC1 (single isomer, unassigned) Condition not met

====

Item-by-item account of Ki
Target: D2 receptor (Homo sapiens (Human), UniProt P14416)
Assay: Radioligand binding ([3H]-spiperone) to cloned D2 receptor expressed in HEK-293 EBNA cells
Conditions: HEK293 EBNA membranes, 0.7 nM [3H]-spiperone
Description: HEK293 EBNA cells were transiently transfected with expression plasmids encoding for the human D2 or D3 or for the human 5-HT2A receptor, respectively. […] The protein content of this homogenate was determined with the Bio-Rad (Bradford) Protein Assay (Biorad Laboratories GmbH, München, Germany) according to the instructions of the manufacturer using gamma globulin as the standard. […] The binding affinity (Ki) of the compounds was determined using radioligand binding. […]
The reply should be a number in nM, with the unit left off.

Below, each entry is followed by its recorded Ki result.
{"compound": "COC(C)C(=O)N[C@H]1CC[C@H](CCN2CCN(c3cccc4c3OCO4)CC2)CC1 (stereo in doubt) [Example 26]", "Ki [nM]": 150}
{"compound": "[2H]C1([2H])Oc2cccc(N3CCN(CC[C@H]4CC[C@H](NC(=O)C(C)C)CC4)CC3)c2O1", "Ki [nM]": 105}
{"compound": "O=C(CC1COC1)N[C@H]1CC[C@H](CCN2CCN(c3cccc4c3OCO4)CC2)CC1", "Ki [nM]": 106}

Query: Ki; subject: O=C(N[C@H]1CC[C@H](CCN2CCN(c3cccc4c3OCO4)CC2)CC1)C1CCCO1 (stereo partly shown) 117

// query: O=C(C[C@@H]1CCCCO1)N[C@H]1CC[C@H](CCN2CCN(c3cccc4c3OCO4)CC2)CC1 (single isomer, unassigned) 220

// query: O=C(N[C@H]1CC[C@H](CCN2CCN(c3cccc4c3OCO4)CC2)CC1)C1CC(Cl)C1 (stereo partly shown) 81.1

// query: CC(C)(O)C(=O)N[C@H]1CC[C@H](CCN2CCN(c3cccc4c3OCO4)CC2)CC1 181

// query: CC(C)C(=O)N[C@H]1CC[C@H](CCN2CCN(c3cccc4c3OCO4)CC2)CC1 137

// query: CCCC(=O)N[C@H]1CC[C@H](CCN2CCN(c3cccc4c3OCO4)CC2)CC1 144

====

Item-by-item account of Ki
target: D2 receptor (Homo sapiens (Human)); assay: Radioligand binding ([3H]-spiperone) to cloned D2 receptor expressed in HEK-293 EBNA cells; details: HEK293 EBNA membranes, 0.7 nM [3H]-spiperone
Please state the value followed by its unit.

{"compound": "CN(C)C(=O)N[C@H]1CC[C@H](CCN2CCN(c3cccc4c3OCO4)CC2)CC1 [Example 72]", "targetDesc": "D2 receptor (Homo sapiens (Human))", "readoutLabel": "Ki", "endpointResult": "30.4 nM"}

Query: Ki; subject: CN1CCC(C(=O)N[C@H]2CC[C@H](CCN3CCN(c4cccc5c4OCO5)CC3)CC2)CC1 [Example 57] 62.9 nM

// query: O=C(CC1(O)CCC1)N[C@H]1CC[C@H](CCN2CCN(c3cccc4c3OCO4)CC2)CC1 [Example 28] 94.6 nM

// query: O=C(N[C@H]1CC[C@H](CCN2CCN(c3cccc4c3OCO4)CC2)CC1)c1ccc2c(c1)OCCO2 [Example 49] 4820 nM

// query: [2H]C1([2H])Oc2cccc(N3CCN(CC[C@H]4CC[C@H](NC(=O)C[C@H]5COCCO5)CC4)CC3)c2O1 [Example 78] 198 nM

// query: CC(C)(O)CC(=O)N[C@H]1CC[C@H](CCN2CCN(c3cccc4c3OCO4)CC2)CC1 [Example 27] 76.8 nM
